Biological target: CD28 (Homo sapiens, UniProt P10747)
Test: Jurkat/IL2 + CHO/OKT3 +/- PD-L1 reporter assay: PD-L1-dependent CD28 costimulation
Assay type: cell-based
Set-up: host or cells: Jurkat cells expressing an IL-2-luciferase reporter
Settings: Table E21; Jurkat/IL2 + CHO/OKT3/PD-L1; 5.0 nM
Entries and their Fold Increase over WT CD80-IgV-Fe

Tell us which Fold Increase over WT CD80-IgV-Fe value is on record for E35D/D46V/M47L/L85Q (protein) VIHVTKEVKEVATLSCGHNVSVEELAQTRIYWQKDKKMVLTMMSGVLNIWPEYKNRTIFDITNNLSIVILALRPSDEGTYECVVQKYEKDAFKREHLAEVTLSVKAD
4.2 fold

Tell us which Fold Increase over WT CD80-IgV-Fe value is on record for E35D/V68M/L85Q (protein) VIHVTKEVKEVATLSCGHNVSVEELAQTRIYWQKDKKMVLTMMSGDMNIWPEYKNRTIFDITNNLSIMILALRPSDEGTYECVVQKYEKDAFKREHLAEVTLSVKAD
4.4 fold

Tell us which Fold Increase over WT CD80-IgV-Fe value is on record for M47V/V68M (protein) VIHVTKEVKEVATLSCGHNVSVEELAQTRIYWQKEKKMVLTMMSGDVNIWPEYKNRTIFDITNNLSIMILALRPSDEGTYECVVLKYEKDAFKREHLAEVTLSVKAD
4.8 fold

Tell us which Fold Increase over WT CD80-IgV-Fe value is on record for D46V/L85Q (protein) VIHVTKEVKEVATLSCGHNVSVEELAQTRIYWQKEKKMVLTMMSGVMNIWPEYKNRTIFDITNNLSIVILALRPSDEGTYECVVQKYEKDAFKREHLAEVTLSVKAD
3.0 fold
